All values here come from PubChem BioAssay (NCI).

# method.notes: NCI Yeast Anticancer Drug Screen. Data for the mlh1 rad18 strain (AID 175)
# cond: S. cerevisiae mlh1 rad18 strain growth inhibition; at 50.0 µM; stronger effect = higher value
This is part of a sample that, as a whole, favours compounds with a hit. Of some 79,000 tested, about 15% had one in any assay.
So basically: growth inhibition at 90% or higher? That is Y. Lower than 90%? That is N.

Lookup: API: above_or_equal(metric=growth inhibition, cutoff=90%) for item O=C(Nc1ccn(C2CC(O)C(COC(c3ccccc3)(c3ccccc3)c3ccccc3)O2)c(=O)n1)c1ccccc1 (stereo not given)
Found: Y

Lookup: API: above_or_equal(metric=growth inhibition, cutoff=90%) for item O=C(Cc1ccccc1F)NC1=C(Cl)C(=O)c2ccccc2C1=O
Found: N

Lookup: API: above_or_equal(metric=growth inhibition, cutoff=90%) for item NNc1nnc(-c2ccccc2)nc1Cc1ccccc1
Found: N
